- test.description: wn = mass fraction of the nth substance listed
- setup.conditions: 323.15 K; 101 kPa; Liquid; Taylor dispersion method; w1 = 0.1
measurement.kind: binary diffusion coefficient (m2/s)

> print(dat)
                                   compound              measurement.kind  measured.value
1  CN(C)CCN(C)C [N,N,N',N'-tetramethyl-1,2-diaminoethane] + O  binary diffusion coefficient        9.51e-10
2  CN(C)CCCN(C)C [N,N,N',N'-tetramethyl-1,3-propanediamine] + O  binary diffusion coefficient        7.48e-10
3  CNCCCN [N-methyl-1,3-diaminopropane] + O  binary diffusion coefficient        1.18e-09
4       NCCNCCN [di(2-aminoethyl)amine] + O  binary diffusion coefficient        1.12e-09
